Assignment: determine reported koff for the given binders.
Target: T1, Murine B7-H4 ECD-Flag-His10 (monomeric) (mouse, UniProt Q7TSP5 25-257)
T1 construct: extracellular domain; also called FlagHis10 murine B7-H4
T1 sequence (looked up): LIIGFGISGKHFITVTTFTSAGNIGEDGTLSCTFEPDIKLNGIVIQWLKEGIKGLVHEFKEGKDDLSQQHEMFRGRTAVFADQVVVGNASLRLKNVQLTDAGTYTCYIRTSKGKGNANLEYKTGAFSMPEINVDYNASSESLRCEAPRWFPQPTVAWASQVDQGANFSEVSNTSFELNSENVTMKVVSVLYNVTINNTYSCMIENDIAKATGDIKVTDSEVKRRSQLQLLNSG
Experiment: Octet BLI, hIgG1 on Protein G (n = 1)
Give bare numbers, in s⁻¹.

Some solved cases for reference:
binder	unit.abbreviation	koff
ZY0EQD-E02 human IgG1 (antibody, V domains shown) VH: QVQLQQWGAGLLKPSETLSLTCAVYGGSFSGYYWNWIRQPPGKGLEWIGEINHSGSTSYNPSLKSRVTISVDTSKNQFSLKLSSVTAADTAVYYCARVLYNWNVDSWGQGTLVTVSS VL: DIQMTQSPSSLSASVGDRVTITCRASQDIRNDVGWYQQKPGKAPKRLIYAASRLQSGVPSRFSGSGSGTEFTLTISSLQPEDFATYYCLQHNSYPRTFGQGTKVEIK	s⁻¹	0.213
ZY0EOB-F05 human IgG1 (antibody, V domains shown) VH: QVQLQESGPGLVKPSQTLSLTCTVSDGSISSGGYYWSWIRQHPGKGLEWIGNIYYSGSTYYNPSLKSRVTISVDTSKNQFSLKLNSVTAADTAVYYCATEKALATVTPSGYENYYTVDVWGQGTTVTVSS VL: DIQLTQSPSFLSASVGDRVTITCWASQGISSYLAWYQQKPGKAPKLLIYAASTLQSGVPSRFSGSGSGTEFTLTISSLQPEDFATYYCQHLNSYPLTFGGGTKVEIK	s⁻¹	0.000493

Okay, now this binder:
Give its koff value. Item: ZY0EO5-E07 human IgG1 (antibody, V domains shown, also called ZY0E05-E07; E05-E07) VH: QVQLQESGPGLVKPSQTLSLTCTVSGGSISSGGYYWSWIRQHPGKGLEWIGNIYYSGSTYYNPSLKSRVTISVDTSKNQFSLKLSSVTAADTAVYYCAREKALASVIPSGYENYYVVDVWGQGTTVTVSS VL: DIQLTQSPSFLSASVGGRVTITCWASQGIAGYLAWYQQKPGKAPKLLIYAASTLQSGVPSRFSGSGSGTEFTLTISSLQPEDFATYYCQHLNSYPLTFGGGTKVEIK
0.000415

Cited source: patent US20240239894A1
